Test system: Tov-21-G
Assay: Primary qHTS to identify gynecologic anti-cancer compounds using libraries of approved drugs and bioactive compounds (AID 1345084); also: nearly all actives have a fitted effect of over 55% in size
Settings: Gynecologic cancer cell panel viability, ATPlite luminescence, 48 h; series mostly up to 57.5 µM
Records with an inconclusive call do not appear. Calls of active or inactive are those of the source. Calls follow the shape of the dose curve; as a rule, active = well fitted cell-killing curve with a large enough effect; inconclusive = small, poorly fitted or top-dose-only effect, or effect the other way; inactive = flat fitted curve, though single readings scatter.
Recorded endpoint: outcome

Compound | Assay target | Value reported
CSc1ccc(/C=C2/C(C)=C(CC(=O)O)c3cc(F)ccc32)cc1 | Tov-21-G | inactive
CCCCOC(=O)CCCCCCCCC(=O)OCCCC | Tov-21-G | inactive
CNC[C@H](O)[C@@H](O)[C@H](O)[C@H](O)CO | Tov-21-G | inactive
CC(=O)Nc1ccn(C2COC(COC(=O)c3ccccc3)O2)c(=O)n1 (configuration not stated) | Tov-21-G | inactive
CCN(CC)CC(=O)Nc1c(C)cccc1C(=O)OC | Tov-21-G | inactive
Cc1nc2n(c(=O)c1CCN1CCC(C(=O)c3ccc(F)cc3)CC1)CCS2 | Tov-21-G | inactive
CCCOc1ccc2c(c1)CC[C@@H]1[C@@H]2CC[C@]2(C)C(OC)CC[C@@H]12 (some centres not stated) | Tov-21-G | inactive
